B1: 3'-5' exoribonuclease 1, residues 65 to 114; numbered along this chain, Q8IV48 (parent)
chain: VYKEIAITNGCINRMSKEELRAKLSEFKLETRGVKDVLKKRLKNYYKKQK

Variants of: B1
procedureSummary: abundance fitness (aPCA) (normalised: wild type 0, dead -1); higher = more abundant; growth selection in yeast, the domain comes from the species named
reportedConditions: Homo sapiens
Short version: abundance fitness at least -0.3 is TRUE, less is FALSE.

These recorded examples may help you get a feel for the data.
Would you say K40E shows abundance fitness at minimum -0.3?
FALSE

Form field: abundance fitness at least -0.3? Entry: V37N
FALSE

Is it the case that S25H has abundance fitness reaching or exceeding -0.3?
TRUE

Has E26I a recorded abundance fitness greater than or equal to -0.3?
FALSE

Please check the record D36Q and state if its abundance fitness is at or above -0.3.
TRUE

---
Identify whether the reported abundance fitness of the following variant is -0.3 or greater: K39H
FALSE

Please check the record S16F and state if its abundance fitness is at or above -0.3.
FALSE

Hi team, for Y2V , is the recorded abundance fitness at or above -0.3?
TRUE

Given R21E , state whether its abundance fitness is at least -0.3.
FALSE

abundance fitness >= -0.3 for S25E ?
TRUE

Tell me whether abundance fitness is at least -0.3 here: I12R
FALSE

Decide: abundance fitness of L38D >= -0.3?
FALSE

Reported abundance fitness reaches at least -0.3 for L20C ?
FALSE

Would you say R21N shows abundance fitness at minimum -0.3?
FALSE

Threshold query (abundance fitness >= -0.3) on D36L
TRUE

Hi, just wondering whether M15I shows abundance fitness of -0.3 or higher.
FALSE

Reported abundance fitness at or above -0.3? L29W
FALSE

The reported numbers originate from the Human Domainome abundance scans (Beltran et al. 2025).
